- system.under.test: Epidermal growth factor receptor (Homo sapiens, UniProt P00533, C797S/L858R/T790M)
- Sequence (P00533 25-1210 T790M/C797S/L858R limits assumed): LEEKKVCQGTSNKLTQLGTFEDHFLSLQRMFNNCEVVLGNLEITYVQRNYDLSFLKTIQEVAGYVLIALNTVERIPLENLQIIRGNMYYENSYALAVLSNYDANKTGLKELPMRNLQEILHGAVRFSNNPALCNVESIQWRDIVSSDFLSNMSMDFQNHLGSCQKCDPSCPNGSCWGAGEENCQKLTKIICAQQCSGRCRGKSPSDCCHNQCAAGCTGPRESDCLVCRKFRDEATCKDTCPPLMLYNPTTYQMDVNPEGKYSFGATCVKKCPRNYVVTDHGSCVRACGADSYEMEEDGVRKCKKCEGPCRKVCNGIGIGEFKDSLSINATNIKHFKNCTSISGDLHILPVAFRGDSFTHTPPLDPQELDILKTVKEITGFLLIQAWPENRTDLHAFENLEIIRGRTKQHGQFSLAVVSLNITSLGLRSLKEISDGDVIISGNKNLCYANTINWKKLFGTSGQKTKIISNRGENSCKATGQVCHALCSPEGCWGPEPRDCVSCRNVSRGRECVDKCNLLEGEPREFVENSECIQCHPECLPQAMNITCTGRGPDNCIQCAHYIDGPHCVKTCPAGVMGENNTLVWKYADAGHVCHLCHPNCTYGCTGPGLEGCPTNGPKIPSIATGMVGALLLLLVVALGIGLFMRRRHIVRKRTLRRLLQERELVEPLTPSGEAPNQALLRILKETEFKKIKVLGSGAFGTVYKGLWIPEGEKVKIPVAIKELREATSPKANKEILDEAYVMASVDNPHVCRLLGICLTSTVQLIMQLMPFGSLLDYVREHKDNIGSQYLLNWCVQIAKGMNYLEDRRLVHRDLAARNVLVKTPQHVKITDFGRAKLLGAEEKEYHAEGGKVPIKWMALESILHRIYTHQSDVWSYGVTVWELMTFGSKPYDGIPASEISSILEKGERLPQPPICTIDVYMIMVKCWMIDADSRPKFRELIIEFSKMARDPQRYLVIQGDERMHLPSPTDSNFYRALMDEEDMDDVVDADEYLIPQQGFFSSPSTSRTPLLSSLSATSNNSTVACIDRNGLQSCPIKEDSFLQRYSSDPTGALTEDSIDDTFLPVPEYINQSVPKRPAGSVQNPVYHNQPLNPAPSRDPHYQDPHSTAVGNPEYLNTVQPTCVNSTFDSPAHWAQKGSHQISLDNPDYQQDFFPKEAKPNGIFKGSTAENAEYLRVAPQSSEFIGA
- assay.details: Inhibition of EGFR L858R/T790M/C797S triple mutant (unknown origin) using poly (Glu, Tyr) as substrate after 40 mins by kinase-glo plus luminescence assay
pIC50: −log10 of the molar value.
property: pIC50

Worked set:
{"columns": ["sample.smiles", "pIC50"],
 "data": [
  ["CN(C)CCOc1ccc(Nc2ncc3nc(Sc4ccccc4)n(C4CCOCC4)c3n2)cc1", 6.25],
  ["CN(C)C1CCN(c2ccc(Nc3ncc4nc(Sc5ccccc5)n(C5CCOCC5)c4n3)cc2)CC1", 6.48]
]}

A: CN1CCN(c2ccc(Nc3ncc4nc(Sc5ccccc5)n([C@H]5CC[C@H](O)CC5)c4n3)cc2)CC1
B: CN1CCN(c2ccc(Nc3ncc4nc(Sc5ccccc5)n(C5CCOCC5)c4n3)cc2)CC1
**Q:** For the pair A and B , which member has the lower pIC50 number? Return value: the label identifying the chosen record.
**A:** B
(B: 6.05, A: 6.28)

P: CN(C)CCOc1ccc(Nc2ncc3nc(Sc4cccc(F)c4)n(C4CCOCC4)c3n2)cc1
Q: CN(C)CCOc1ccc(Nc2ncc3nc(Sc4ccc(F)cc4)n(C4CCOCC4)c3n2)cc1
**Q:** Sort P and Q by pIC50 descending and give the first. Return value: the label identifying the chosen record.
**A:** Q

----------
- System: HCC827
- assay.details: Antiproliferative activity against human HCC827 cells after 72 hrs by MTT assay
- Format: functional, cell-based
- protocol.conditions: HCC827, 72 h
property: IC50 (nM)

Worked set:
{"columns": ["compound", "unit.of.measure", "measured.number"],
 "data": [
  ["CN(C)CCN(C)c1ccc(Nc2ncc3nc([S+]([O-])c4ccccc4)n(C4CCOCC4)c3n2)cc1 (centres undefined)", "nM", 1330],
  ["CN1CCN(c2ccc(Nc3ncc4nc(SCc5cccnc5)n(C5CCCC5)c4n3)cc2)CC1", "nM", 517],
  ["CN1CCC(Oc2ccc(Nc3ncc4nc(Sc5ccccc5)n(C5CCOCC5)c4n3)cc2)CC1", "nM", 140]
]}

I: CN(C)C1CCN(c2ccc(Nc3ncc4nc([S+]([O-])c5ccccc5)n(C5CCOCC5)c4n3)cc2)CC1 (centres undefined)
II: CN1CCN(c2ccc(Nc3ncc4nc(SCc5ccccc5)n(C5CCOCC5)c4n3)cc2)CC1
III: CN1CCN(c2ccc(Nc3ncc4nc([S+]([O-])c5ccccc5)n(C5CCOCC5)c4n3)cc2)CC1 (centres undefined)
**Q:** Could you please sort these 3 entries by IC50 from high to low? Give me the labels in the order the question wants.
**A:** I, III, II

----------
- System: HCC827
- assay.details: Antiproliferative activity against human HCC827 cells after 72 hrs by MTT assay
- Format: functional, cell-based
- protocol.conditions: HCC827, 72 h
Measured IC50 values are reported for all entries that follow.

Worked set:
{"columns": ["compound", "IC50"],
 "data": [
  ["C=CC(=O)Nc1cc(Nc2nccc(-c3cn(C)c4ccccc34)n2)c(OC)cc1N(C)CCN(C)C", "0.0254 to 0.0431 µM"],
  ["CN1CCN(c2ccc(Nc3ncc4nc([S+]([O-])Cc5cccnc5)n(C5CCOCC5)c4n3)cc2)CC1 (stereo not drawn)", "> 10 µM"]
]}

**Q:** Field request: IC50 | item: `CN1CCN(c2ccc(Nc3ncc4nc(Sc5ccccc5)n([C@H]5CC[C@H](O)CC5)c4n3)cc2)CC1`
**A:** 0.0426 to 0.0479 µM
